Entries and their EC50
- assayed_target: Corticotropin-releasing factor receptor 2/Corticotropin-releasing factor-binding protein (Homo sapiens, UniProt P24387+Q13324)
- Sequence (Q13324 whole entry): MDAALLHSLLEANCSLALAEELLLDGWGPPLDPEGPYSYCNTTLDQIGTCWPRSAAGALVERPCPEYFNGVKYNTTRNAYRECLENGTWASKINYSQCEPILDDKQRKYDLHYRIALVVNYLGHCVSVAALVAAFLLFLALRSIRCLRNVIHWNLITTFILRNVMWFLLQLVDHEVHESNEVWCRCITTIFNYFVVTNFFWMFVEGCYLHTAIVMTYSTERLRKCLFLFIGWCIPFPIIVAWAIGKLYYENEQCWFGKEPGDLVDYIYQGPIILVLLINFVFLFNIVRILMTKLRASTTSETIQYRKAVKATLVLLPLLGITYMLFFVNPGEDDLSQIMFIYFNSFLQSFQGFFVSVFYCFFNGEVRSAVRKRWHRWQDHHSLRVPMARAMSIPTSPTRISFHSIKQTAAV
- Sequence (P24387 whole entry): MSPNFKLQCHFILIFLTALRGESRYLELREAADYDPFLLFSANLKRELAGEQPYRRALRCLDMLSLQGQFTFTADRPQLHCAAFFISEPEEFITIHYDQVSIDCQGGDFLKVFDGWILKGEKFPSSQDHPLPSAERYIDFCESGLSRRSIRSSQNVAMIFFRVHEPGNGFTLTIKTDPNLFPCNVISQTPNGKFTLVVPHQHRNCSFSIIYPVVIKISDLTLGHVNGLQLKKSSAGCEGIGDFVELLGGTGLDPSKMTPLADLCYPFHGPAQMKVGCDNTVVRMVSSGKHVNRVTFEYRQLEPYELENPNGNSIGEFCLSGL
- experimental_protocol: activators of CRF receptor 2 with binding protein – uHTS hits, confirmation (AID 602473)
- Type: functional
- settings: read-out: EC50_Mean
Calls of active or inactive are those of the source. Cut-off read from the data, not from the text of the source: actives have a measured EC50 and inactives only a lower limit.

Past entries and their recorded results:
>>> df
                                   compound  reported_metric              result
0          COc1ccccc1OCC(=O)NNC(=O)c1cnccn1             EC50  > 53 µM (inactive)
1  CCC(=O)N(Cc1c(C)nn(-c2ccccc2)c1Cl)c1ccc(Cl)cc1             EC50  > 53 µM (inactive)
2  N#CC1=C(N)OC2=C(C(=O)CC(c3ccccc3)C2)C1c1ccc2c(c1)OCO2 (stereo not given)             EC50  > 53 µM (inactive)
3  CCCNS(=O)(=O)c1ccc(Oc2ncc(C(F)(F)F)cc2Cl)cc1             EC50  > 53 µM (inactive)
4  CCOc1ccc(C2C(C(=O)c3ccc4c(c3)OCCO4)=C(O)C(=O)N2CCCN2CCOCC2)cc1 (stereo not given)             EC50  > 53 µM (inactive)
5  O=c1c2ccccc2nc2n1C(CBr)CN2 (stereo not given)             EC50  > 53 µM (inactive)

# input Answer with reported EC50 of CC(/C=C/c1ccccc1)=N/NC(=O)CNC(=O)c1ccc2c(c1)OCO2
# output > 53 µM (inactive)

# input Answer with reported EC50 of COC(=O)c1ccc(C(=O)NC2CCCc3c2cnn3-c2ccc(C)c(C)c2)cc1 (stereo not given)
# output > 53 µM (inactive)

# input Answer with reported EC50 of CNC(=O)c1sc(N2N=C3/C(=C/c4ccccc4)CCCC3C2c2ccccc2)nc1C (stereo not given)
# output 16.1 µM (active)

# input Answer with reported EC50 of O=C(Nc1cc(C(F)(F)F)ccc1Cl)C(Sc1cccc[n+]1[O-])c1ccccc1 (stereo not given)
# output > 53 µM (inactive)

# input Answer with reported EC50 of Cc1cc([N+](=O)[O-])ccc1NCc1ccco1
# output > 53 µM (inactive)
